The compounds listed here are annotated with their Ratio IC50.
Species on record: Homo sapiens
assayRemarks: Selectivity for human CB2 receptor over CB1 receptor
Form rule: numeric answer, no unit written next to it.

Worked cases, Ratio IC50 given:
1. COc1ccc(C(F)(F)F)cc1C(=O)/N=c1\sc(C(C)(C)C)c(C)n1CC1CC1 ... 1600
2. Cc1c(C(C)(C)C)s/c(=N\C(=O)c2cc(C(F)(F)F)ccc2F)n1CC1CC1 ... 440
3. Cc1c(C(C)(C)C)s/c(=N\C(=O)c2cccc(C(F)(F)F)c2)n1CC1CC1 ... 270

Ratio IC50 reported for this compound Cc1ccc(C(F)(F)F)cc1C(=O)/N=c1\sc(C(C)(C)C)c(C)n1CC1CC1 : 570

Provenance of the data: ChEMBL document CHEMBL1140512
